# test_summary: logP by HPLC on reversed-phase columns (C 18), method [a], acidic range pH 2.3
# Type: physicochemical
# measurement_context: pH 2.94, logP (pH2.94)
quantity_kind: chromatographic logP
Answer with the value's number alone.

>  <compound>
CCC[S+]([O-])c1cccc(Nc2ncc(C(F)(F)F)c(Cl)n2)c1 (centres unmarked) [Xb-1]

>  <measured_result>
1.76

$$$$

[ask] What does the data say about its chromatographic logP? Entry: CC(O)c1cccc(Nc2ncc(Cl)c(NC3CC3)n2)c1 (centres unmarked) [Ic-IV-1]
[reply] 1.25

====

Below, each entry is listed with its recorded chromatographic logP.
# test_summary: logP by LC-MS on reversed-phase columns (C 18), method [b], acidic range pH 2.7
# Format: physicochemical
# measurement_context: pH 2.7, log p
Answer with the value's number alone.

Solved cases (5 shown):
>  <molecule>
CCOC(C)c1cccc(Nc2ncc(C(F)(F)F)c(NC3CC3)n2)c1 (centres unmarked)

>  <chromatographic logP>
3.6

$$$$
>  <molecule>
CCCSc1ccc(Nc2ncc(Cl)c(NC3CC3)n2)cc1

>  <chromatographic logP>
3.09

$$$$
>  <molecule>
CCC(SC)c1cccc(Nc2ncc(Cl)c(NC3CC3)n2)c1 (centres unmarked)

>  <chromatographic logP>
2.94

$$$$
>  <molecule>
CCCSc1cccc(Nc2ncc(Cl)c(NC3CC3C)n2)c1 (centres unmarked)

>  <chromatographic logP>
3.58

$$$$
>  <molecule>
CCCCSc1cccc(Nc2ncc(Br)c(NC3CCC3)n2)c1

>  <chromatographic logP>
4.57

$$$$

[ask] What does the data say about its chromatographic logP? Entry: CCSC(C)c1cccc(Nc2ncc(Cl)c(NC3CCC3C)n2)c1 (centres unmarked)
[reply] 3.59

[ask] Field entry: COC(C)c1cccc(Nc2ncc(Cl)c(NC3CC3C)n2)c1 (centres unmarked)
[reply] 0.95
